- Tested on: RXF 393 renal
- protocol summary: NCI tumour cell line growth inhibition, 48 h; in the data active = GI50 below about 0.43 µM; inactive = the rest
The reply should be one of these categories: 1 = active, 0 = inactive

Lookup: Dear colleague, could you share the recorded outcome for CC[C@@H](C(=O)[C@@H](C)[C@@H](O)[C@H](C)[C@@H]1O[C@@H]([C@@H](CC)C(=O)O)CC[C@@H]1C)[C@H]1OC2(C=C[C@@H](O)[C@]3(CC[C@@](C)([C@H]4CC[C@](O)(CC)[C@H](C)O4)O3)O2)[C@H](C)C[C@@H]1C (some centres not stated) when you have a moment?
Found: 1

Lookup: Note, next up: Clc1ccc(-c2nn3ncccc3c2-c2ccnc(Nc3ccccc3)n2)cc1
Found: 0

Lookup: Note, next up: O=C1C(Cl)=C(Nc2cccc(O)c2)C(=O)N1c1ccc(Cl)c(Cl)c1
Found: 0

Lookup: Note, next up: CC(=O)OCC1OC(OC2=C(CC=C(Cl)Cl)C(=O)c3ccccc3C2=O)C(OC(C)=O)C(OC(C)=O)C1OC(C)=O (configuration not stated)
Found: 0

Lookup: Note, next up: CCCCN(CCCC)CCCN=c1nc2c(c(N)n1-c1ccccc1)c(=S)n(-c1ccccc1)c(=S)n2-c1ccccc1
Found: 0

Lookup: Note, next up: C=C1CCC2C3(C)COC(c4ccc(SC)cc4)OC3CCC2(C)C1C/C=C1/C(=O)OCC1O (configuration not stated)
Found: 0

Lookup: Note, next up: C=C1C(=O)O[C@@H]2C[C@@H]1CC[C@@]1(C)O[C@@H]1CC[C@@]1(C)O[C@@H]1CC[C@@]2(C)O
Found: 0

Hello, the source for this data is PubChem BioAssay (NCI), in case you need it.
